Listed below: EC50 values for each entry.
Target: human notum pectinacetyltransferase (Homo sapiens)
Construct: made in house; unpurified conditioned medium used
Sequence (Q6P988 20-496): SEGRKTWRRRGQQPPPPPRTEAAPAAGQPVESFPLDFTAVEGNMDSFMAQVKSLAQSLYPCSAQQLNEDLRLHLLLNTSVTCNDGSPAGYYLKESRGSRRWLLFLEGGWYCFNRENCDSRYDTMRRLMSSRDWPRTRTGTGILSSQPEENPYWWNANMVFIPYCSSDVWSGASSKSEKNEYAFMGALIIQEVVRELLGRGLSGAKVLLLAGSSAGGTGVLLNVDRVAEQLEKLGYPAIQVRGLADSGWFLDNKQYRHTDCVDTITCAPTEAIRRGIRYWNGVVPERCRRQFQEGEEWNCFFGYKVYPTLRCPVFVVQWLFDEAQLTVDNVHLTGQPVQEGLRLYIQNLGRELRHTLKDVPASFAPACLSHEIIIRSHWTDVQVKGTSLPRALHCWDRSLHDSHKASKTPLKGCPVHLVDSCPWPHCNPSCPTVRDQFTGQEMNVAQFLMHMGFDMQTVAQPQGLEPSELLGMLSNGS
Assay: Reporter assay (CellSensor LEF/TCF-bla FreeStyle 293F cells, Wnt3a and notum conditioned media)
Type: cell-based
Settings: class symbols

structure.smiles.string	tgt	EC50
COC(=O)CNC(=O)c1cc2c(s1)-c1ccccc1CC2	human notum pectinacetyltransferase (Homo sapiens)	< 50 nM
CN(C)c1ccc2c(c1)CCc1cc(C(=O)O)sc1-2	human notum pectinacetyltransferase (Homo sapiens)	< 500 nM
COc1ccc2c(c1)-c1sc(C(=O)O)cc1CS2(=O)=O	human notum pectinacetyltransferase (Homo sapiens)	< 500 nM
O=C(O)c1cc2c(s1)-c1ccsc1CC2	human notum pectinacetyltransferase (Homo sapiens)	< 500 nM
NC(=O)c1cc2c(s1)-c1c(F)cc(F)cc1OC2	human notum pectinacetyltransferase (Homo sapiens)	< 50 nM
NC(=O)c1cc2c(s1)-c1ccc(F)c(F)c1OC2	human notum pectinacetyltransferase (Homo sapiens)	< 50 nM
O=C(O)c1cc2c(s1)-c1cccc(Cl)c1OC2	human notum pectinacetyltransferase (Homo sapiens)	< 50 nM
O=C(O)c1cc2c(s1)-c1sccc1CC2	human notum pectinacetyltransferase (Homo sapiens)	< 1000 nM
O=C(c1cc2c(s1)-c1cc(F)c(Cl)cc1SC2)N1CC[C@H](F)C1	human notum pectinacetyltransferase (Homo sapiens)	< 50 nM
NC(=O)c1cc2c(s1)-c1cc(F)ccc1OCC2	human notum pectinacetyltransferase (Homo sapiens)	< 50 nM
O=C(O)c1cc2c(s1)-c1ccc(Cl)c(F)c1OC2	human notum pectinacetyltransferase (Homo sapiens)	< 50 nM
O=C(O)c1cc2c(s1)-c1ccccc1SCC2	human notum pectinacetyltransferase (Homo sapiens)	< 100 nM
COCCNC(=O)c1cc2c(s1)-c1cc(F)ccc1OCC2	human notum pectinacetyltransferase (Homo sapiens)	< 500 nM

---

Target: human notum pectinacetyltransferase (Homo sapiens)
Construct: made in house; unpurified conditioned medium used
Test: Reporter assay (CellSensor LEF/TCF-bla FreeStyle 293F cells, Wnt3a and notum conditioned media)
Type: cell-based
Settings: class symbols
Recorded measurements of EC50, one per entry
readout.type: EC50

molecule	readout.type	reported.value
CCCNC(=O)c1cc2c(s1)-c1ccccc1CC2	EC50	< 500 nM
NC(=O)c1cc2c(s1)-c1cc(Cl)cc(F)c1OC2	EC50	< 50 nM
O=C(O)c1cc2c(s1)-c1ccc(Cl)c(Cl)c1SC2	EC50	< 50 nM
Cc1ccc2c(c1)-c1sc(C(N)=O)cc1CS2	EC50	< 50 nM
NC(=O)c1cc2c(s1)-c1ccccc1S(=O)(=O)C2	EC50	< 50 nM
Cc1cc(C)c2c(c1)-c1sc(C(=O)NCC(=O)O)cc1CC2	EC50	< 100 nM
N#Cc1ccc2c(c1)-c1sc(C(=O)O)cc1CC2	EC50	< 1000 nM
COc1ccc2c(c1Cl)CCc1cc(C(=O)N3CCC(F)C3)sc1-2 (stereo not shown)	EC50	< 50 nM
COc1ccc2c(c1F)CCc1cc(C(=O)O)sc1-2	EC50	< 50 nM
O=C(O)c1cc2c(s1)-c1cc(Cl)cc(Cl)c1SC2	EC50	< 50 nM
COc1ccc2c(c1Cl)CCc1cc(C(=O)NCCN3CCOCC3)sc1-2	EC50	< 50 nM
COc1ccc2c(c1Br)CCc1cc(C(N)=O)sc1-2	EC50	< 50 nM
NC(=O)c1cc2c(s1)-c1cc(F)c(F)cc1OC2	EC50	< 50 nM
Cc1cc(Cl)cc2c1OCc1cc(C(N)=O)sc1-2	EC50	< 50 nM
NC(=O)c1cc2c(s1)-c1cccc(F)c1CC2	EC50	< 50 nM
COc1ccc2c(c1)-c1sc(C(=O)O)cc1CC2	EC50	< 500 nM
COCCNC(=O)c1cc2c(s1)-c1ccc(OC)c(Cl)c1CC2	EC50	< 50 nM
N#CC1CCN(C(=O)c2cc3c(s2)-c2cccc(F)c2CC3)C1 (stereo not shown)	EC50	< 50 nM
O=C(O)c1cc2c(s1)-c1cccc(F)c1OC2	EC50	< 50 nM
O=C(NCCc1nnn[nH]1)c1cc2c(s1)-c1cccc(F)c1CC2	EC50	< 50 nM
O=C(O)c1cc2c(s1)-c1cc(F)ccc1CCC2	EC50	< 1000 nM
O=C(O)c1cc2c(s1)-c1ccc(C(F)(F)F)cc1OC2	EC50	< 50 nM
O=C1CCN(C(=O)c2cc3c(s2)-c2ccc(Cl)c(Cl)c2OC3)C1	EC50	< 50 nM
O=C(c1cc2c(s1)-c1ccc(Cl)c(Cl)c1OC2)N1CCC(F)C1 (stereo not shown)	EC50	< 50 nM
NC(=O)c1cc2c(s1)-c1ccccc1SCC2	EC50	< 50 nM
O=C(O)c1cc2c(s1)-c1ccc(F)c(F)c1OC2	EC50	< 50 nM
O=C(NCCn1ccnc1)c1cc2c(s1)-c1cccc(F)c1CC2	EC50	< 500 nM
CCOC(=O)c1cc2c(s1)-c1ccc(OC)cc1CC2	EC50	< 500 nM
CC1Cc2cc(C(=O)O)sc2-c2c(F)ccc(F)c21 (stereo not shown)	EC50	< 50 nM
O=C(O)c1cc2c(s1)-c1c(Cl)ccc(Cl)c1OC2	EC50	< 50 nM
N#Cc1cccc2c1OCc1cc(C(=O)O)sc1-2	EC50	< 50 nM
O=C(c1cc2c(s1)-c1cc(F)cc(F)c1SC2)N1CCCC1CO (stereo not shown)	EC50	< 100 nM
COc1ccc2c(c1)CCc1cc(C(=O)O)sc1-2	EC50	< 50 nM
O=C(O)CNC(=O)c1cc2c(s1)-c1ccccc1CC2	EC50	< 50 nM
